- System: E. coli KA797 cells carrying BlaC position 105 library
- Assay type: cell-based, Escherichia coli
- reported-conditions: AA 105 Val (BlaC I105V), relative to WT Ile, average of replicates
Overview of recorded Fi AVG (average fitness) for various compounds
Number, no unit, nothing else.

Below are worked cases with known answers.
{"molecule-smiles": "CC1(C)[C@H](C(=O)O)N2C(=O)C[C@H]2S1(=O)=O", "Fi AVG (average fitness)": 0.121}
{"molecule-smiles": "C[C@@H](O)[C@H]1C(=O)N2C(C(=O)O)=C(S[C@@H]3CN[C@H](C(=O)N(C)C)C3)[C@H](C)[C@H]12", "Fi AVG (average fitness)": -0.016}
{"molecule-smiles": "NC(=O)[C@@H]1CC[C@@H]2CN1C(=O)N2OS(=O)(=O)O", "Fi AVG (average fitness)": -0.187}

Continue with the next compound.
The observed Fi AVG (average fitness) for `O=C(O)[C@H]1/C(=C/CO)O[C@@H]2CC(=O)N21` when tested with E. coli KA797 cells carrying BlaC position 105 library stands at 0.071

====

- Test system: E. coli KA797 cells carrying BlaC position 105 library
- Assay type: cell-based, Escherichia coli
- reported-conditions: AA 105 Asp (BlaC I105D), relative to WT Ile, average of replicates
reported-metric: Fi AVG (average fitness)
API doc: respond with a numeric literal and nothing else, no unit.

Some solved entries appear below for comparison.
{"molecule-smiles": "CC1(C)[C@H](C(=O)O)N2C(=O)C[C@H]2S1(=O)=O", "tested-on": "E. coli KA797 cells carrying BlaC position 105 library", "Fi AVG (average fitness)": -0.060}
{"molecule-smiles": "C[C@@H](O)[C@H]1C(=O)N2C(C(=O)O)=C(S[C@@H]3CN[C@H](C(=O)N(C)C)C3)[C@H](C)[C@H]12", "tested-on": "E. coli KA797 cells carrying BlaC position 105 library", "Fi AVG (average fitness)": -0.059}
{"molecule-smiles": "O=C(O)[C@H]1/C(=C/CO)O[C@@H]2CC(=O)N21", "tested-on": "E. coli KA797 cells carrying BlaC position 105 library", "Fi AVG (average fitness)": -0.195}

Proceed to the following item.
Given item `NC(=O)[C@@H]1CC[C@@H]2CN1C(=O)N2OS(=O)(=O)O` , the value recorded as its Fi AVG (average fitness) is 0.306

====

- tested-on: CTX-M-14 Y105G (Escherichia coli, UniProt Q9L5C7, Y108G)
- Construct: 29 to 291 of CTX-M-14 (Q9L5C7); His tag with TEV cleavage site (N)
- experimental-protocol: biochemical
reported-metric: pKi
Please note pKi is a logarithmic value: minus log10 of concentration in mol/L. Answer with that number alone.

The recorded pKi for entry NC(=O)[C@@H]1CC[C@@H]2CN1C(=O)N2OS(=O)(=O)O [avibactam] equals 4.30

====

- Tested on: E. coli KA797 cells carrying BlaC position 105 library
- Format: cell-based, Escherichia coli
- reported-conditions: AA 105 Gly (BlaC I105G), relative to WT Ile, average of replicates
reported-metric: Fi AVG (average fitness)

Examples from the recorded data:
{"molecule-smiles": "O=C(O)[C@H]1/C(=C/CO)O[C@@H]2CC(=O)N21", "obs-value": 0.325}
{"molecule-smiles": "CC1(C)[C@H](C(=O)O)N2C(=O)C[C@H]2S1(=O)=O", "obs-value": 0.023}
{"molecule-smiles": "C[C@@H](O)[C@H]1C(=O)N2C(C(=O)O)=C(S[C@@H]3CN[C@H](C(=O)N(C)C)C3)[C@H](C)[C@H]12", "obs-value": -0.019}

Now for a further compound.
So the reported Fi AVG (average fitness) for `NC(=O)[C@@H]1CC[C@@H]2CN1C(=O)N2OS(=O)(=O)O` , on E. coli KA797 cells carrying BlaC position 105 library, turned out to be 2.428

====

- Test system: E. coli KA797 cells carrying BlaC position 105 library
- Type: cell-based, Escherichia coli
- reported-conditions: AA 105 Gln (BlaC I105Q), relative to WT Ile, average of replicates
The entries below come with measured Fi AVG (average fitness) values attached.
// return just the number, without any unit appended

{"molecule-smiles": "C[C@@H](O)[C@H]1C(=O)N2C(C(=O)O)=C(S[C@@H]3CN[C@H](C(=O)N(C)C)C3)[C@H](C)[C@H]12", "obs-value": -0.020}
{"molecule-smiles": "CC1(C)[C@H](C(=O)O)N2C(=O)C[C@H]2S1(=O)=O", "obs-value": 0.070}
{"molecule-smiles": "O=C(O)[C@H]1/C(=C/CO)O[C@@H]2CC(=O)N21", "obs-value": -0.027}

Lab note: next molecule to report on.
The molecule listed as `NC(=O)[C@@H]1CC[C@@H]2CN1C(=O)N2OS(=O)(=O)O` has a reported Fi AVG (average fitness) of 1.438

====

- tested-on: CTX-M-14 WT (Escherichia coli)
- Construct: 29 to 291 of CTX-M-14 (Q9L5C7); His tag with TEV cleavage site (N)
- experimental-protocol: biochemical
reported-metric: pKi
Notebook: values listed as pKi are -log10 of the concentration (mol/L).

Short answer for `NC(=O)[C@@H]1CC[C@@H]2CN1C(=O)N2OS(=O)(=O)O` : pKi was 6.33

====

- Tested on: E. coli KA797 cells carrying NmcA position 105 library
- Type: cell-based
- reported-conditions: NmcA AA 105 Pro
# maps each entry to its Fi AVG (average fitness of replicates)
Please give the numeric answer without any surrounding text.

{"molecule": "CC1(C)S[C@@H]2[C@H](NC(=O)C(C(=O)O)c3ccccc3)C(=O)N2[C@H]1C(=O)O (stereo partly shown)", "obs-value": -0.671}
{"molecule": "C[C@@H](O)[C@H]1C(=O)N2C(C(=O)O)=C(S[C@@H]3CN[C@H](C(=O)N(C)C)C3)[C@H](C)[C@H]12", "obs-value": -0.060}
{"molecule": "CO/N=C(\\C(=O)N[C@@H]1C(=O)N2C(C(=O)O)=C(CSc3nc(=O)c(=O)[nH]n3C)CS[C@H]12)c1csc(N)n1", "obs-value": 0.055}

# context switch: different molecule, same Fi AVG (average fitness of replicates)
The measured Fi AVG (average fitness of replicates) associated with `CC1(C)S[C@@H]2[C@H](NC(=O)[C@H](N)c3ccccc3)C(=O)N2[C@H]1C(=O)O` reads -0.462

====

Parameter MIC: see the listing below.
- System: E. coli KA797 cells carrying pUK21 with NmcA (pelB/Sec)
- experimental-protocol: microbe, parasite or virus in culture
- Type: cell-based
- reported-conditions: Escherichia coli, antibiotic alone
The reply should contain only the number, in µg/mL.

{"compound": "CC1(C)S[C@@H]2[C@H](NC(=O)[C@H](N)c3ccccc3)C(=O)N2[C@H]1C(=O)O", "MIC (µg/mL)": 400}
{"compound": "CC1(C)S[C@@H]2[C@H](NC(=O)C(C(=O)O)c3ccccc3)C(=O)N2[C@H]1C(=O)O (stereo partly shown)", "MIC (µg/mL)": 200}
{"compound": "CO/N=C(\\C(=O)N[C@@H]1C(=O)N2C(C(=O)O)=C(CSc3nc(=O)c(=O)[nH]n3C)CS[C@H]12)c1csc(N)n1", "MIC (µg/mL)": 0.2}

Switching to the query record.
MIC measured on `C[C@@H](O)[C@H]1C(=O)N2C(C(=O)O)=C(S[C@@H]3CN[C@H](C(=O)N(C)C)C3)[C@H](C)[C@H]12` = 1.6

====

- Tested on: E. coli KA797 cells carrying BlaC position 105 library
- Type: cell-based, Escherichia coli
- reported-conditions: AA 105 Ala (BlaC I105A), relative to WT Ile, average of replicates
reported-metric: Fi AVG (average fitness)
Reply with the value as a number alone.

// solved cases for Fi AVG (average fitness) follow
{"molecule-smiles": "CC1(C)[C@H](C(=O)O)N2C(=O)C[C@H]2S1(=O)=O", "obs-value": -0.022}
{"molecule-smiles": "O=C(O)[C@H]1/C(=C/CO)O[C@@H]2CC(=O)N21", "obs-value": 0.441}
{"molecule-smiles": "C[C@@H](O)[C@H]1C(=O)N2C(C(=O)O)=C(S[C@@H]3CN[C@H](C(=O)N(C)C)C3)[C@H](C)[C@H]12", "obs-value": -0.028}

Recorded Fi AVG (average fitness) (molecule `NC(=O)[C@@H]1CC[C@@H]2CN1C(=O)N2OS(=O)(=O)O` ): 0.716

====

List of Fi AVG (average fitness of replicates) values.
- Tested on: E. coli KA797 cells carrying NmcA position 105 library
- Assay type: cell-based
- reported-conditions: NmcA AA 105 Phe
Just the number, please, no unit attached.

{"molecule": "C[C@@H](O)[C@H]1C(=O)N2C(C(=O)O)=C(S[C@@H]3CN[C@H](C(=O)N(C)C)C3)[C@H](C)[C@H]12", "tested-on": "E. coli KA797 cells carrying NmcA position 105 library", "Fi AVG (average fitness of replicates)": 0.140}

# value of Fi AVG (average fitness of replicates), E. coli KA797 cells carrying NmcA position 105 library, item `CO/N=C(\C(=O)N[C@@H]1C(=O)N2C(C(=O)O)=C(CSc3nc(=O)c(=O)[nH]n3C)CS[C@H]12)c1csc(N)n1` = 0.046

Reported E. coli KA797 cells carrying NmcA position 105 library Fi AVG (average fitness of replicates) for item `CC1(C)S[C@@H]2[C@H](NC(=O)[C@H](N)c3ccccc3)C(=O)N2[C@H]1C(=O)O` was -0.065

Tested on E. coli KA797 cells carrying NmcA position 105 library: CC1(C)S[C@@H]2[C@H](NC(=O)C(C(=O)O)c3ccccc3)C(=O)N2[C@H]1C(=O)O (stereo partly shown) . Observed Fi AVG (average fitness of replicates): -0.458

From: paper PMC12274840
